# Assay comment: Phase 1 study: plasma pharmacokinetics in patients
# Type: in vivo, human
# Experimental setup: human, plasma, po, 600 mg, patient plasma, oral (1-g) 600 mg QD, C1D15, n = 4, *median value; read-out: Tmax*
Value kind: Tmax (h)
Reply with just the number (in h).

Q: I have this compound here, O=C1CC[C@H](N2Cc3cc(N4CCN(CC5CCN(c6ccc([C@@H]7c8ccc(O)cc8OC[C@@H]7c7ccccc7)cc6F)CC5)CC4)ccc3C2=O)C(=O)N1 [compound (1-g)] , and I need its recorded Tmax.
A: 6

---

# Assay comment: Phase 1 study: plasma pharmacokinetics in patients
# Type: in vivo, human
# Experimental setup: human, plasma, po, 200 mg, patient plasma after oral (1-g) 200 mg QD, C1D15, n = 12, mean; read-out: Cmax of (1-h)
# Source text: All patients received compound (1-g) orally. The time of day for administration of compound (1-g) was consistent. Compound (1-g) was taken whole with liquid(s) and with food in the morning. The patient avoided taking other medications at the same time as compound (1-g). […] If vomiting occurred after taking the study treatment, the patient was instructed not to retake the dose and record the dose recorded as taken in the dosing diary, noting that the patient vomited and marking the time of vomiting. […]
Value kind: Cmax (ng/mL)
Reply with just the number (in ng/mL).

Q: I have this molecule here, O=C1CC[C@@H](N2Cc3cc(N4CCN(CC5CCN(c6ccc([C@@H]7c8ccc(O)cc8OC[C@@H]7c7ccccc7)cc6F)CC5)CC4)ccc3C2=O)C(=O)N1 , and I need its recorded Cmax.
A: 428

---

# Assay comment: Phase 1 study: plasma pharmacokinetics in patients
# Type: in vivo, human
# Experimental setup: human, plasma, po, 200 mg, patient plasma, oral (1-g) 200 mg QD, C1D1, n = 12, mean; read-out: Cmax
Value kind: Cmax (ng/mL)
Reply with just the number (in ng/mL).

Q: I have this molecule here, O=C1CC[C@H](N2Cc3cc(N4CCN(CC5CCN(c6ccc([C@@H]7c8ccc(O)cc8OC[C@@H]7c7ccccc7)cc6F)CC5)CC4)ccc3C2=O)C(=O)N1 [compound (1-g)] , and I need its recorded Cmax.
A: 630

---

# Assay comment: Phase 1 study: plasma pharmacokinetics in patients
# Assay type: in vivo, human
# Experimental setup: human, plasma, po, 100 mg, patient plasma, oral (1-g) 100 mg QD, C1D15, n = 3, *median value; read-out: Tmax*
Value kind: Tmax (h)
Reply with just the number (in h).

Q: I have this compound here, O=C1CC[C@H](N2Cc3cc(N4CCN(CC5CCN(c6ccc([C@@H]7c8ccc(O)cc8OC[C@@H]7c7ccccc7)cc6F)CC5)CC4)ccc3C2=O)C(=O)N1 [compound (1-g)] , and I need its recorded Tmax.
A: 6.67

---

# Assay comment: Phase 1 study: plasma pharmacokinetics in patients
# Type: in vivo, human
# Experimental setup: human, plasma, po, 600 mg, patient plasma after oral (1-g) 600 mg QD, C1D1, n = 4, mean; read-out: AUC0-24 h of (1-h)
Value kind: AUC(0-t) (ng·h/mL)
Reply with just the number (in ng·h/mL).

Q: I have this compound here, O=C1CC[C@@H](N2Cc3cc(N4CCN(CC5CCN(c6ccc([C@@H]7c8ccc(O)cc8OC[C@@H]7c7ccccc7)cc6F)CC5)CC4)ccc3C2=O)C(=O)N1 , and I need its recorded AUC(0-t).
A: 2470

---

# Assay comment: Phase 1 study: plasma pharmacokinetics in patients
# Format: in vivo, human
# Experimental setup: human, plasma, po, 300 mg, patient plasma, oral (1-g) 300 mg QD, C1D15 (steady state), n = 10, mean; read-out: AUC0-24 h
# From the text: All patients received compound (1-g) orally. The time of day for administration of compound (1-g) was consistent. Compound (1-g) was taken whole with liquid(s) and with food in the morning. The patient avoided taking other medications at the same time as compound (1-g). […] If vomiting occurred after taking the study treatment, the patient was instructed not to retake the dose and record the dose recorded as taken in the dosing diary, noting that the patient vomited and marking the time of vomiting. […]
Value kind: AUC(0-t)

Q: I have this compound here, O=C1CC[C@H](N2Cc3cc(N4CCN(CC5CCN(c6ccc([C@@H]7c8ccc(O)cc8OC[C@@H]7c7ccccc7)cc6F)CC5)CC4)ccc3C2=O)C(=O)N1 , and I need its recorded AUC(0-t).
A: 41800 ng·h/mL

---

# Assay comment: Phase 1 study: plasma pharmacokinetics in patients
# Format: in vivo, human
# Experimental setup: human, plasma, po, 300 mg, patient plasma, oral (1-g) 300 mg QD, C1D1, n = 10, mean; read-out: T½ (converted)
Value kind: half-life (h)
Reply with just the number (in h).

Q: I have this compound here, O=C1CC[C@H](N2Cc3cc(N4CCN(CC5CCN(c6ccc([C@@H]7c8ccc(O)cc8OC[C@@H]7c7ccccc7)cc6F)CC5)CC4)ccc3C2=O)C(=O)N1 [compound (1-g)] , and I need its recorded half-life.
A: 31.2

---

# Assay comment: Phase 1 study: plasma pharmacokinetics in patients
# Assay type: in vivo, human
# Experimental setup: human, plasma, po, 400 mg, patient plasma, oral (1-g) 400 mg QD, C1D15, n = 5, mean; read-out: T½ (converted)
Value kind: half-life (h)
Reply with just the number (in h).

Q: I have this molecule here, O=C1CC[C@H](N2Cc3cc(N4CCN(CC5CCN(c6ccc([C@@H]7c8ccc(O)cc8OC[C@@H]7c7ccccc7)cc6F)CC5)CC4)ccc3C2=O)C(=O)N1 , and I need its recorded half-life.
A: 44.9

---

# Assay comment: Phase 1 study: plasma pharmacokinetics in patients
# Format: in vivo, human
# Experimental setup: human, plasma, po, 300 mg, patient plasma, oral (1-g) 300 mg QD, C1D15, n = 10, *median value; read-out: Tmax*
Value kind: Tmax (h)
Reply with just the number (in h).

Q: I have this compound here, O=C1CC[C@H](N2Cc3cc(N4CCN(CC5CCN(c6ccc([C@@H]7c8ccc(O)cc8OC[C@@H]7c7ccccc7)cc6F)CC5)CC4)ccc3C2=O)C(=O)N1 , and I need its recorded Tmax.
A: 4.8

---

# Assay comment: Phase 1 study: plasma pharmacokinetics in patients
# Assay type: in vivo, human
# Experimental setup: human, plasma, po, 400 mg, patient plasma, oral (1-g) 400 mg QD, C1D1, n = 6, mean; read-out: T½ (converted)
Value kind: half-life (h)
Reply with just the number (in h).

Q: I have this molecule here, O=C1CC[C@H](N2Cc3cc(N4CCN(CC5CCN(c6ccc([C@@H]7c8ccc(O)cc8OC[C@@H]7c7ccccc7)cc6F)CC5)CC4)ccc3C2=O)C(=O)N1 , and I need its recorded half-life.
A: 30.4

---

# Assay comment: in vivo
# Experimental setup: male, rat, po
Value kind: NOAEL at 28 day (mg/kg/day)
Reply with just the number (in mg/kg/day).

Q: I have this compound here, O=C1CC[C@H](N2Cc3cc(N4CCN(CC5CCN(c6ccc([C@@H]7c8ccc(O)cc8OC[C@@H]7c7ccccc7)cc6F)CC5)CC4)ccc3C2=O)C(=O)N1 [compound (1-g)] , and I need its recorded NOAEL at 28 day.
A: 270

---

# Assay comment: Phase 1 study: plasma pharmacokinetics in patients
# Assay type: in vivo, human
# Experimental setup: human, plasma, po, 400 mg, patient plasma after oral (1-g) 400 mg QD, C1D15, n = 5, mean; read-out: AUC0-24 h of (1-h)
Value kind: AUC(0-t) (ng·h/mL)
Reply with just the number (in ng·h/mL).

Q: I have this compound here, O=C1CC[C@@H](N2Cc3cc(N4CCN(CC5CCN(c6ccc([C@@H]7c8ccc(O)cc8OC[C@@H]7c7ccccc7)cc6F)CC5)CC4)ccc3C2=O)C(=O)N1 , and I need its recorded AUC(0-t).
A: 17900

---

# Assay comment: Phase 1 study: plasma pharmacokinetics in patients
# Type: in vivo, human
# Experimental setup: human, plasma, po, 400 mg, patient plasma after oral (1-g) 400 mg QD, C1D1, n = 6, mean; read-out: Cmax of (1-h)
Value kind: Cmax

Q: I have this compound here, O=C1CC[C@@H](N2Cc3cc(N4CCN(CC5CCN(c6ccc([C@@H]7c8ccc(O)cc8OC[C@@H]7c7ccccc7)cc6F)CC5)CC4)ccc3C2=O)C(=O)N1 [compound (1-h)] , and I need its recorded Cmax.
A: 118 ng/mL

---

# Assay comment: Phase 1 study: plasma pharmacokinetics in patients
# Type: in vivo, human
# Experimental setup: human, plasma, po, 600 mg, patient plasma after oral (1-g) 600 mg QD, C1D15, n = 4, mean; read-out: Cmax of (1-h)
Value kind: Cmax (ng/mL)
Reply with just the number (in ng/mL).

Q: I have this molecule here, O=C1CC[C@@H](N2Cc3cc(N4CCN(CC5CCN(c6ccc([C@@H]7c8ccc(O)cc8OC[C@@H]7c7ccccc7)cc6F)CC5)CC4)ccc3C2=O)C(=O)N1 , and I need its recorded Cmax.
A: 828
